Assayed Target: Integrin alpha-IIb/beta-3 (Homo sapiens, UniProt P05106+P08514)
Assay Remarks: Inhibition of fibrinogen binding to Integrin alpha2bbeta3 receptor (unknown origin) by competitive ELISA
Each record here notes measured IC50.

Compound: NCCCC[C@@H]1NC(=O)[C@H](CCCN=C(N)N)NC(=O)CNC(=O)C[C@@H](C(=O)O)NC(=O)[C@@H](c2ccccc2)NC1=O
IC50: > 10 µM
//
Compound: N=C(N)NCCC[C@@H]1NC(=O)CNC(=O)C[C@@H](C(=O)O)NC(=O)[C@@H](c2ccccc2)NC(=O)CNC1=O
IC50: > 10 µM
//
Compound: Cc1ccnc(NCCCC(=O)NCC(=O)NC(CC(=O)O)c2ccc(-c3cccc4ccccc34)cc2)c1 (stereo unspecified)
IC50: > 10 µM
//
Compound: N=C(N)NCCC[C@@H]1NC(=O)[C@H](CCCCN)NC(=O)[C@@H](Cc2ccccc2)NC(=O)[C@H](CC(=O)O)NC(=O)CNC1=O
IC50: > 10 µM
//
Compound: NC(N)=NCCC[C@@H]1NC(=O)CNC(=O)C[C@@H](C(=O)O)NC(=O)[C@@H](c2ccccc2)NC(=O)[C@@H](Cc2c[nH]c3ccccc23)NC1=O
IC50: > 10 µM
//
Compound: N=C(N)NCCC[C@@H]1NC(=O)CNC(=O)C[C@@H](C(=O)O)NC(=O)[C@@H](c2ccccc2)NC(=O)[C@@H](CCCCN)NC1=O
IC50: > 10 µM

---

Assayed Target: Integrin alpha-V/beta-3 (Homo sapiens, UniProt P05106+P06756)
Assay Remarks: Inhibition of vitronectin binding to Integrin alphaVbeta3 receptor (unknown origin) by competitive ELISA

Chemical String: NC(N)=NCCC[C@@H]1NC(=O)CNC(=O)C[C@@H](C(=O)O)NC(=O)[C@@H](c2ccccc2)NC(=O)[C@@H](Cc2ccc(O)cc2)NC1=O
Assayed Target: Integrin alpha-V/beta-3 (Homo sapiens, UniProt P05106+P06756)
IC50: > 10 µM
--
Chemical String: NCCCC[C@@H]1NC(=O)[C@H](CCCN=C(N)N)NC(=O)CNC(=O)C[C@@H](C(=O)O)NC(=O)[C@@H](c2ccccc2)NC1=O
Assayed Target: Integrin alpha-V/beta-3 (Homo sapiens, UniProt P05106+P06756)
IC50: 0.516 µM
--
Chemical String: NC(N)=NCCC[C@@H]1NC(=O)CNC(=O)C[C@@H](C(=O)O)NC(=O)[C@@H](c2ccccc2)NC(=O)[C@@H](Cc2c[nH]c3ccccc23)NC1=O
Assayed Target: Integrin alpha-V/beta-3 (Homo sapiens, UniProt P05106+P06756)
IC50: > 10 µM

---

Assayed Target: Integrin alpha-V/beta-3 (Homo sapiens, UniProt P05106+P06756)
Assay Remarks: Inhibition of vitronectin binding to Integrin alphaVbeta3 receptor (unknown origin) by competitive ELISA
Reported IC50 values for a set of compounds

Compound: Cc1ccnc(NCCCC(=O)NCC(=O)NC(CC(=O)O)c2ccc(-c3cccc4ccccc34)cc2)c1 (centres undefined)
IC50: > 10 µM
//
Compound: N=C(N)NCCC[C@@H]1NC(=O)CNC(=O)C[C@@H](C(=O)O)NC(=O)[C@@H](c2ccccc2)NC(=O)[C@@H](CCCCNC(=O)CCSCCOCCOCCOCCOCCOCCOCCO)NC1=O
IC50: > 10 µM
//
Compound: N=C(N)NCCC[C@@H]1NC(=O)CNC(=O)C[C@@H](C(=O)O)NC(=O)[C@@H](c2ccccc2)NC(=O)CNC1=O
IC50: > 1 µM
//
Compound: NC(N)=NCCC[C@@H]1NC(=O)CNC(=O)C[C@@H](C(=O)O)NC(=O)[C@@H](c2ccccc2)NC(=O)[C@H](CCC(=O)O)NC1=O
IC50: 3.87 µM
//
Compound: N=C(N)NCCC[C@@H]1NC(=O)CNC(=O)C[C@@H](C(=O)O)NC(=O)[C@@H](c2ccccc2)NC(=O)[C@@H](CCCCN)NC1=O
IC50: > 10 µM
//
Compound: NC(N)=NCCC[C@@H]1NC(=O)CNC(=O)C[C@@H](C(=O)O)NC(=O)[C@@H](c2ccccc2)NC(=O)[C@@H]2CCCN2C1=O
IC50: 0.675 µM
//
Compound: N=C(N)NCCC[C@@H]1NC(=O)CNC(=O)C[C@@H](C(=O)O)NC(=O)[C@@H](c2ccccc2)NC(=O)[C@H]2CCCN2C1=O
IC50: > 10 µM
//
Compound: NC(N)=NCCC[C@@H]1NC(=O)CNC(=O)C[C@@H](C(=O)O)NC(=O)[C@@H](c2ccccc2)NC(=O)[C@H](Cc2ccc(O)cc2)NC1=O
IC50: > 10 µM
//
Compound: N=C(N)NCCC[C@@H]1NC(=O)[C@H](CCCCNC(=O)CCSCCOCCOCCOCCOCCOCCOCCO)NC(=O)[C@@H](Cc2ccccc2)NC(=O)[C@H](CC(=O)O)NC(=O)CNC1=O
IC50: 0.0136 µM

---

Assayed Target: Integrin alpha-5/beta-1 (Homo sapiens, UniProt P05556+P08648)
Assay Remarks: Inhibition of fibronectin binding to human Integrin alpha5beta1 receptor by competitive ELISA
pIC50: −log10 of the molar value.
pIC50 values, listed per item

Chemical String: CC(C)[C@H]1NC(=O)[C@H](CCCN=C(N)N)NC(=O)CNC(=O)C[C@@H](C(=O)O)NC(=O)[C@@H](c2ccccc2)NC1=O
pIC50: 8.14
//
Chemical String: NC(N)=NCCC[C@@H]1NC(=O)CNC(=O)C[C@@H](C(=O)O)NC(=O)[C@@H](c2ccccc2)NC(=O)[C@H](Cc2c[nH]c3ccccc23)NC1=O
pIC50: 7.14
//
Chemical String: N=C(N)NCCC[C@@H]1NC(=O)[C@H](CCCCNC(=O)CCSCCOCCOCCOCCOCCOCCOCCO)NC(=O)[C@@H](Cc2ccccc2)NC(=O)[C@H](CC(=O)O)NC(=O)CNC1=O
pIC50: 6.71
